EXPERIMENTAL_TARGET: Lck (Homo sapiens, UniProt P06239)
Sequence (P06239 whole entry, species assumed): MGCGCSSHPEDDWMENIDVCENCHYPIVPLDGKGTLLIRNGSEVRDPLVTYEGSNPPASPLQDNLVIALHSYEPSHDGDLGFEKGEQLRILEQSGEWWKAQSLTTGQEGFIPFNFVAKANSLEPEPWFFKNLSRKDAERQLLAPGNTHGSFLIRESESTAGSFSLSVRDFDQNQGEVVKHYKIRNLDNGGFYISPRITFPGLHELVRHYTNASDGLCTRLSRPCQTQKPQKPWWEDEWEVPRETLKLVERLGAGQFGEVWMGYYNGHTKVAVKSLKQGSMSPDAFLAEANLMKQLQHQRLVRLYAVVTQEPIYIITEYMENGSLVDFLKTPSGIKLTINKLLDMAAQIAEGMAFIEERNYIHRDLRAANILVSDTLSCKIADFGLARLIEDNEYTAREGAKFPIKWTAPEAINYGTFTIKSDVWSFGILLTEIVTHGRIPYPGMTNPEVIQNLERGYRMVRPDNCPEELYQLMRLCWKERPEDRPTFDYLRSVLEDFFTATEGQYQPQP
PROTOCOL_NOTES: Lck kinase activity, TR-FRET assay
Assay type: biochemical
PARTICULARS: read-out: LCK (IC50)
PARAMETER: IC50

Check out these entries, answers already filled in.
Query: Which IC50 value is on record for `Cc1ccnc(NC(=O)c2ccc(Oc3ccnc4[nH]nc(N[C@@H]5CCCN(C(=O)C(C)(C)C#N)C5)c34)cc2)c1` ?
Reply: 0.1 to 1 µM

Query: Similarly, `C=CC(=O)N1CCC[C@@H](Nc2n[nH]c3nccc(Oc4cccc(C(=O)Nc5cc(C(F)(F)F)ccn5)c4)c23)C1` ?
Reply: 0.1 to 1 µM

Others:
Query: Return reported IC50; argument: `CN(C/C=C/C(=O)N1CCC[C@@H](Nc2n[nH]c3nccc(Oc4ccc(C(=O)Nc5nc6ccccc6s5)cc4)c23)C1)C1CC1`
Reply: 0.1 to 1 µM

Query: Moving on to the next compound: `CC#CC(=O)N1CCC[C@@H](Nc2n[nH]c3nccc(Oc4ccc(C(=O)Nc5ncc(CC)s5)cc4)c23)C1`
Reply: 0.1 to 1 µM

Query: Next up: `C=CC(=O)N1CCC[C@@H](Nc2n[nH]c3nccc(O[C@H]4CC[C@H](C(=O)Nc5ncc(C)s5)CC4)c23)C1`
Reply: > 10 µM

Query: Query `Cc1ccnc(NC(=O)c2ccc(Oc3ccnc4[nH]nc(N[C@@H]5CCCN(C#N)C5)c34)cc2)c1` next
Reply: 0.1 to 1 µM

Query: Another compound to check: `N#C/C(=C\c1ccccn1)C(=O)N1CC[C@@H](Nc2n[nH]c3nccc(Oc4ccc(Oc5ccccc5)cc4)c23)C1`
Reply: 0.1 to 1 µM

Query: Now this one: `N#CCC(=O)N1CC[C@@H](Nc2n[nH]c3nccc(Oc4ccc(Oc5ccccc5)cc4)c23)C1`
Reply: < 0.1 µM

Query: Consider next the compound `COCCN(C)C/C=C/C(=O)N1CC[C@@H](Nc2n[nH]c3nccc(Oc4ccc(Oc5ccccc5)cc4)c23)C1` in the same way.
Reply: < 0.1 µM

Query: Also `Cc1ccnc(NC(=O)c2ccc(Oc3ccnc4[nH]nc(N[C@@H]5CCCN(C(=O)C6(C)CCN(C)CC6)C5)c34)cc2)c1` , if possible.
Reply: 0.1 to 1 µM

Query: Same question, `Cc1ccnc(NC(=O)c2ccc(Oc3ccnc4[nH]nc(N[C@@H]5CCCN(C(=O)c6ccc(F)cc6)C5)c34)cc2)c1` this time
Reply: 1 to 10 µM

Query: Entry to check: `C=CC(=O)N1CC[C@H](Nc2n[nH]c3nccc(Oc4cccc(C(=O)Nc5ccc(C(C)C)c(C)c5)c4)c23)C1`
Reply: < 0.1 µM

Query: Check `CN(C)C/C=C/C(=O)N1CC[C@@H](Nc2n[nH]c3nccc(Oc4ccc(Cl)cc4)c23)C1` too.
Reply: > 10 µM
